- Test system: Artemia salina
- assay_details: whole plant or invertebrate
- Format: in vivo
- test_conditions: 10 µM, 24 h
Recorded Percentage of Survival of Artemia salina after 24 h for the following molecules
Output spec: scalar in %, unitless text.

Ask | What value of Percentage of Survival of Artemia salina after 24 h has been recorded for this entry: CO[C@@H](CC[C@H](C)[C@H]1O[C@]23C[C@H](OC(=O)C[C@H]([C@@H](C)O)OC(=O)[C@H](O)C(=C(C)CC2(C)C)O3)[C@@H]1C)c1cccc(O)c1 [Compound 2, oscillatoxin K]
Reply | 95.23

Ask | # Percentage of Survival of Artemia salina after 24 h lookup, item ClCCl [Methylenechloride, dichloromethane, reference compound]
Reply | 0

Ask | Given CO[C@@H](CC[C@H](C)[C@H]1O[C@@]23C[C@H](OC(=O)C[C@H]([C@@H](C)O)OC(=O)C[C@](O)(O2)[C@H](C)CC3(C)C)[C@@H]1C)c1cccc(O)c1 [Compound 5, debromoaplysiatoxin] , state its recorded Percentage of Survival of Artemia salina after 24 h.
Reply | 0

Ask | Which Percentage of Survival of Artemia salina after 24 h value belongs to CO[C@@H](CC[C@H](C)[C@H]1O[C@@]23C[C@H](OC(=O)C[C@H]([C@@H](C)O)OC(=O)/C=C(\O2)C(C)=CC3(C)C)[C@@H]1C)c1cccc(O)c1 [Compound 1, oscillatoxin J] ?
Reply | 95

Ask | Data request, read-out Percentage of Survival of Artemia salina after 24 h, for COC(CCC(C)C1OC23CC(OC(=O)CC(C(C)O)OC(=O)CC(C)(O2)C(=O)CC3(C)C)C1C)c1cccc(O)c1 (stereo not drawn) [Compound 4, oscillatoxin M]
Reply | 96.15

Ask | Query (molecule): CO[C@@H](CC[C@H](C)[C@H]1O[C@@]23C[C@H](OC(=O)C[C@H]([C@@H](C)O)OC(=O)C[C@](O)(O2)[C@@](C)(O)CC3(C)C)[C@@H]1C)c1cccc(O)c1 [Compound 3, oscillatoxin L] ; field requested: Percentage of Survival of Artemia salina after 24 h
Reply | 96.37

====

- Tested on: Artemia salina
- assay_details: whole plant or invertebrate
- Assay type: in vivo
- test_conditions: 0.1 µM, 24 h
Below: a set of entries, each annotated with reported Percentage of Survival of Artemia salina after 24 h.
Give just the numeric value; % need not be written.

For orientation, consider the following solved cases.
{"columns": ["compound", "unit_abbreviation", "test_value"],
 "data": [
  ["CO[C@@H](CC[C@H](C)[C@H]1O[C@]23C[C@H](OC(=O)C[C@H]([C@@H](C)O)OC(=O)[C@H](O)C(=C(C)CC2(C)C)O3)[C@@H]1C)c1cccc(O)c1", "%", 96.63],
  ["CO[C@@H](CC[C@H](C)[C@H]1O[C@@]23C[C@H](OC(=O)C[C@H]([C@@H](C)O)OC(=O)/C=C(\\O2)C(C)=CC3(C)C)[C@@H]1C)c1cccc(O)c1", "%", 96.62],
  ["ClCCl [Methylenechloride, dichloromethane, reference compound]", "%", 0],
  ["COC(CCC(C)C1OC23CC(OC(=O)CC(C(C)O)OC(=O)CC(C)(O2)C(=O)CC3(C)C)C1C)c1cccc(O)c1 (stereo not drawn)", "%", 95.13],
  ["CO[C@@H](CC[C@H](C)[C@H]1O[C@@]23C[C@H](OC(=O)C[C@H]([C@@H](C)O)OC(=O)C[C@](O)(O2)[C@H](C)CC3(C)C)[C@@H]1C)c1cccc(O)c1", "%", 87.19]
]}

Now turn to the next compound.
Ask | Given the compound CO[C@@H](CC[C@H](C)[C@H]1O[C@@]23C[C@H](OC(=O)C[C@H]([C@@H](C)O)OC(=O)C[C@](O)(O2)[C@@](C)(O)CC3(C)C)[C@@H]1C)c1cccc(O)c1 , what is its reported Percentage of Survival of Artemia salina after 24 h?
Reply | 97.74
